- tested_on: rat GIPR (Rattus norvegicus, UniProt P43219)
- Construct: expressed in transfected cells; host or cells: COS-7
- Sequence (P43219 19-455): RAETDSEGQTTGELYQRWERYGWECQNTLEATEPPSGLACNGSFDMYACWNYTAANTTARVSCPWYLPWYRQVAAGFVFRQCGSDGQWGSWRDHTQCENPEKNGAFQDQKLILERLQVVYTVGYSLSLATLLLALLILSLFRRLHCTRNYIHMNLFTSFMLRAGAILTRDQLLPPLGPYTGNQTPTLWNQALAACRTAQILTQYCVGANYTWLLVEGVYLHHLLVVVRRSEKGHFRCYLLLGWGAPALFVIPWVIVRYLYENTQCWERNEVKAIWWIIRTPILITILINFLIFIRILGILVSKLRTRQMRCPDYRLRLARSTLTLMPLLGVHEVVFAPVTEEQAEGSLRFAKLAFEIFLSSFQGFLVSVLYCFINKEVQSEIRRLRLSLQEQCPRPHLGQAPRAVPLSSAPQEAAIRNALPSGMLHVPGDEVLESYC
- protocol_text: HitHunter cAMP assay in transiently transfected COS-7 cells, rat GIPR
- Assay type: cell-based
- run_parameters: Emax normalized to highest concentration of endogenous ligand

{"columns": ["substance", "tested_on", "unit_name", "rGIPR Efficacy (%)"],
 "data": [
  ["H-Aib-DGTFISDY-K(γGlu-C16)-T-Aib-LDALAARDFIEWLIQTKITK-OH [Compound no. 33]", "rat GIPR (Rattus norvegicus, UniProt P43219)", "%", 98.7],
  ["H-Aib-DGTFISDY-K(γGlu-C16)-TAib-LDNLAARDFINWLIQTKITKNDWKHNITQ-OH [Compound no. 37]", "rat GIPR (Rattus norvegicus, UniProt P43219)", "%", 91.0],
  ["H-Aib-DGTFISDY-K(γGlu-C16)-TILDNLAARDFINWLIQTKGKKNDWKHNITQ-NH2 [Compound no. 14]", "rat GIPR (Rattus norvegicus, UniProt P43219)", "%", 98.3],
  ["H-Aib-DG-K(γGlu-C16)-FISDYSTILDNLAARDFINWLIQTKITK-OH [Compound no. 9]", "rat GIPR (Rattus norvegicus, UniProt P43219)", "%", 74.3],
  ["H-Aib-DGTFISDY-K(yglu-C10)-T-Aib-LDNLAARDFINWLIQTKITGNDWKHNITQ-OH [Compound no. 54]", "rat GIPR (Rattus norvegicus, UniProt P43219)", "%", 110.3],
  ["H-Aib-DG-K(γGlu-C16 diacid)-FISDYST-Aib-LDNLAARDFINWLIQTKITK-OH [Compound no. 25]", "rat GIPR (Rattus norvegicus, UniProt P43219)", "%", 71.7],
  ["H-Aib-DGTFISDY-K(γGlu-C16)-TILDNLAARDFINWLIQTKITK-OH [Compound no. 11]", "rat GIPR (Rattus norvegicus, UniProt P43219)", "%", 107.0]
]}
